test.name: Plasma concentration in mouse model of CFA-induced pain at 60 mg/kg, po during Hargreaves test
Type: ADME, organism-based
condition.context: in vivo
property.label: concentration (µM)

| smiles.string | measured.result |
| --- | --- |
| Cc1nn([C@@H]2CCN([C@H](C)c3cc(Cl)cc(Cl)c3)C2)c2cc(F)c(C(=O)NS(=O)(=O)C3CC3)cc12 | 67.9 |

----------
study.target: Sodium channel protein type 1 subunit alpha (Homo sapiens, UniProt P35498)
test.name: Binding affinity to human recombinant Nav1.1 by radioligand binding assay
pKd: −log10 of the molar value.
Parameter: pKd. Scope: all listed entries.

| smiles.string | pKd |
| --- | --- |
| Cc1nn([C@@H]2CCN([C@H](C)c3cc(Cl)cc(Cl)c3)C2)c2cc(F)c(C(=O)NS(=O)(=O)C3CC3)cc12 | 6.85 |
| CS(=O)(=O)NC(=O)c1cc(C2CC2)c(OCC2CCN(Cc3cc(C(F)(F)F)ccc3Cl)CC2)cc1F | 6.85 |

----------
test.name: Unbound fraction in mouse plasma
Assay type: ADME, cell-free

| smiles.string | fraction unbound |
| --- | --- |
| COc1cc(-c2cc(F)cc(Cl)c2)c(F)cc1-n1c(=O)ccc2cc(S(=O)(=O)Nc3ccon3)ccc21 | 0.0017 |
| CS(=O)(=O)NC(=O)c1cc(C2CC2)c(OCC2CCN(Cc3cc(C(F)(F)F)ccc3Cl)CC2)cc1F | 0.002 |
| Cc1nn([C@@H]2CCN([C@H](C)c3cc(Cl)cc(Cl)c3)C2)c2cc(F)c(C(=O)NS(=O)(=O)C3CC3)cc12 | 0.007 |

----------
study.target: Sodium channel protein type 1 subunit alpha (Homo sapiens)
test.name: Inhibition of human Nav1.1 expressed in HEK293 cells by electrophysiology assay
Type: cell-based
condition.context: hek293

| smiles.string | IC50 |
| --- | --- |
| COc1cc(-c2cc(F)cc(Cl)c2)c(F)cc1-n1c(=O)ccc2cc(S(=O)(=O)Nc3ccon3)ccc21 | > 14 µM |

----------
test.name: Plasma concentration in mouse model of pain at 30 mg/kg, po during hot plate test
Assay type: ADME, organism-based
condition.context: in vivo

| smiles.string | display.unit | concentration |
| --- | --- | --- |
| CS(=O)(=O)NC(=O)c1cc(C2CC2)c(OCC2CCN(Cc3cc(C(F)(F)F)ccc3Cl)CC2)cc1F | µM | 10.5 |

----------
study.target: Sodium channel protein type 4 subunit alpha (Homo sapiens, UniProt P35499)
Sequence (P35499 whole entry): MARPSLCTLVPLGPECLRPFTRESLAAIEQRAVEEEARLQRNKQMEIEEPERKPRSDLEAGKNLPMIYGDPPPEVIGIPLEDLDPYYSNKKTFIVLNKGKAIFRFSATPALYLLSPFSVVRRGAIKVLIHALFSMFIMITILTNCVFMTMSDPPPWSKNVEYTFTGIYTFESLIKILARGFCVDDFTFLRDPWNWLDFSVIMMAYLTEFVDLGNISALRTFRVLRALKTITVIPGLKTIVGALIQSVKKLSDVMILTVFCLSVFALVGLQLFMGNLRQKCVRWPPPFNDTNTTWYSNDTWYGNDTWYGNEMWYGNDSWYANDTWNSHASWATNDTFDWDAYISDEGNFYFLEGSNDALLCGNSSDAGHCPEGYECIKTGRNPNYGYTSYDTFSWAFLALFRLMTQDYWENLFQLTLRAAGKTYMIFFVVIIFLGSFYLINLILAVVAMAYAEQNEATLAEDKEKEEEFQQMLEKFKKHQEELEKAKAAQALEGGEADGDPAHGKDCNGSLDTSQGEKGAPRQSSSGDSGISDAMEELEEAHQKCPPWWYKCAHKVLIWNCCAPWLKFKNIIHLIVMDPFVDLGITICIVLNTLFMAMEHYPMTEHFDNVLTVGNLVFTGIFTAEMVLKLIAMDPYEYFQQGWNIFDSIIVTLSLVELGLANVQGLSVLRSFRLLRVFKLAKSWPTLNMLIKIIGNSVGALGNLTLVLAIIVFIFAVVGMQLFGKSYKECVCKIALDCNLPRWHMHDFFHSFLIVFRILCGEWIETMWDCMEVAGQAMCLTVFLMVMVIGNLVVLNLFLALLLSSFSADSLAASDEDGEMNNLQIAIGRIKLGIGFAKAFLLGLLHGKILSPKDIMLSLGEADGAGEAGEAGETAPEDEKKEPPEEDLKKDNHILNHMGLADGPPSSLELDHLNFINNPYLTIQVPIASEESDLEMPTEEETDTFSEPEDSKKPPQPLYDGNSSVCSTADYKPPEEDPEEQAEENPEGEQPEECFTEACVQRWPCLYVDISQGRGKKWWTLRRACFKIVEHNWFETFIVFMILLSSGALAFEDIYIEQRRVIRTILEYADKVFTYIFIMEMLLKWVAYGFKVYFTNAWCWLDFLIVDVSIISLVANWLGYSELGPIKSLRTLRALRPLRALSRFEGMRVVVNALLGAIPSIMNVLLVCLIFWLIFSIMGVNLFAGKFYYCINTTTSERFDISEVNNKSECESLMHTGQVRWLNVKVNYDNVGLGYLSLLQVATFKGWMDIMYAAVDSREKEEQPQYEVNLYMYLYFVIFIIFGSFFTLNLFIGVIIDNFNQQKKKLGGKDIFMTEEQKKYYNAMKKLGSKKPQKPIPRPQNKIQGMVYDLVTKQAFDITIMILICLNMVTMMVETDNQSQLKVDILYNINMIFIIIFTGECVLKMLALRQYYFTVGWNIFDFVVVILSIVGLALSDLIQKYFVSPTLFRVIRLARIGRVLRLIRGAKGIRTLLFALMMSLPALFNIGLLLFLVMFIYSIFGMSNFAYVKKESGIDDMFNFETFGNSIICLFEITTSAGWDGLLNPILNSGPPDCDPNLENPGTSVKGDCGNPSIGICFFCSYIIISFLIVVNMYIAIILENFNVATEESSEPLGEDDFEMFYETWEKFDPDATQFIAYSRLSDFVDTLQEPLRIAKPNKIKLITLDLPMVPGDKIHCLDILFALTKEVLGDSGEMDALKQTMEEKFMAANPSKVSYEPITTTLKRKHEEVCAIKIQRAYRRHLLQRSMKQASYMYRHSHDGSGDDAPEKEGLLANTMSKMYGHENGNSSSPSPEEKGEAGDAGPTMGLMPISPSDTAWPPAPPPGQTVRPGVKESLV
test.name: Inhibition of human Nav1.4 expressed in HEK293 cells by electrophysiology assay
Type: cell-based
condition.context: hek293
pIC50: −log10 of the molar value.

| smiles.string | pIC50 |
| --- | --- |
| COc1cc(-c2cc(F)cc(Cl)c2)c(F)cc1-n1c(=O)ccc2cc(S(=O)(=O)Nc3ccon3)ccc21 | < 4.85 |

----------
study.target: Sodium channel protein type 5 subunit alpha (Homo sapiens, UniProt Q14524)
Sequence (Q14524 whole entry): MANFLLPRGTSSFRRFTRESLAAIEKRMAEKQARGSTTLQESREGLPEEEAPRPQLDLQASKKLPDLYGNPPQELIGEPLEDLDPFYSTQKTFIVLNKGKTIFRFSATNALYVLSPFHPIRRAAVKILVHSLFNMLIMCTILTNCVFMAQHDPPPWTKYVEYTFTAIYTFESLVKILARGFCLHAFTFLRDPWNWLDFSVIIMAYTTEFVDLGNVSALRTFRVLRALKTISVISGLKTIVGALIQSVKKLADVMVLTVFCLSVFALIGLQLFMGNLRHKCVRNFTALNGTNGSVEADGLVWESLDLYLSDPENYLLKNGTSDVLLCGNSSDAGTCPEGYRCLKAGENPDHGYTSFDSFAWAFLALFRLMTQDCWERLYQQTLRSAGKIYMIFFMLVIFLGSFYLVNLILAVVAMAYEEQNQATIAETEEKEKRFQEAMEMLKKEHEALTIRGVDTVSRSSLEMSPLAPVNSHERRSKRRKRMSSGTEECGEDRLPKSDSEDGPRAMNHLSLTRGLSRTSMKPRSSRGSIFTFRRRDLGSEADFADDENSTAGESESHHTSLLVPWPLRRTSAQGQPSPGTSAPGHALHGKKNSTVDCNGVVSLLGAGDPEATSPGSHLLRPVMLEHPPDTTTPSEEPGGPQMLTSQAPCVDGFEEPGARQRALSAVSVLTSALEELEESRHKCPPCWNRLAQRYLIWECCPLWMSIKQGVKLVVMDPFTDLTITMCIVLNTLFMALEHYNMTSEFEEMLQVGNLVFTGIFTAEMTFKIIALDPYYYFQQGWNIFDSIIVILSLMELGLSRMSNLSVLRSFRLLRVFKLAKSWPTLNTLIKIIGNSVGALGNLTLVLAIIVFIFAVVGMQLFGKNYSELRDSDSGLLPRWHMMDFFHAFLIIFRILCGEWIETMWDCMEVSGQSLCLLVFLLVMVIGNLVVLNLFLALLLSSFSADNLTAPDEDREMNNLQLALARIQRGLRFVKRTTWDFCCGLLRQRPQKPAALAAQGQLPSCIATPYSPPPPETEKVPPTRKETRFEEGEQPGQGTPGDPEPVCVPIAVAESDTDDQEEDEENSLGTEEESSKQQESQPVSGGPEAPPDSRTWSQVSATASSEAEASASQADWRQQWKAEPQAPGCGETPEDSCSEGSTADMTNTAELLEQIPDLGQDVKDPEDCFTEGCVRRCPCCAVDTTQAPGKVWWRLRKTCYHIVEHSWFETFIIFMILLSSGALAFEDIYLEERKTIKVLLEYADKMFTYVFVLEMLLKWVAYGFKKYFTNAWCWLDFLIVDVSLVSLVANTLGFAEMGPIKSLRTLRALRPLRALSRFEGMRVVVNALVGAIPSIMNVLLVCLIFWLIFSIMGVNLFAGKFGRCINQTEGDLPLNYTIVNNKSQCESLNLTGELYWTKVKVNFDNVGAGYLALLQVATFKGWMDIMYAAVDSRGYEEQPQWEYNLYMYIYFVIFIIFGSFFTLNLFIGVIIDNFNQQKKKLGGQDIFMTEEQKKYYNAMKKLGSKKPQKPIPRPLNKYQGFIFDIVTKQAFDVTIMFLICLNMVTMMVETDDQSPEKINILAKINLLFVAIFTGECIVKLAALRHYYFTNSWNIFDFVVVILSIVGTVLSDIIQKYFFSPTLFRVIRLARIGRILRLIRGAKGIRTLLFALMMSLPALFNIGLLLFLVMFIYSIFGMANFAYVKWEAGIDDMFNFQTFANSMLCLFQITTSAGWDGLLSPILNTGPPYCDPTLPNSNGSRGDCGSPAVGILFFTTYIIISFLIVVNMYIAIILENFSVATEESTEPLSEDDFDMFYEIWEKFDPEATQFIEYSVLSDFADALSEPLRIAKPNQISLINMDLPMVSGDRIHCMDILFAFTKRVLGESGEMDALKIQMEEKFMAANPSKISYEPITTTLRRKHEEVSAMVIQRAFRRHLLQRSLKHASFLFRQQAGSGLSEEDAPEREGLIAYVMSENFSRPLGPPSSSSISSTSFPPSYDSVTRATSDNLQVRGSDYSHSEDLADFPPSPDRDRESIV
test.name: Inhibition of human Nav1.5 expressed in HEK293 cells by electrophysiology assay
Format: cell-based
pIC50: −log10 of the molar value.
Parameter: pIC50. Scope: all listed entries.

| molecule | prefix.operator | pIC50 |
| --- | --- | --- |
| O=C(NS(=O)(=O)N1CCC1)c1cc(C2CC2)c(OCC23CC4CC(CC(C4)C2)C3)cc1F | = | 7.31 |
| COc1cc(-c2cc(F)cc(Cl)c2)c(F)cc1-n1c(=O)ccc2cc(S(=O)(=O)Nc3ccon3)ccc21 | < | 4.85 |
| N#Cc1cc(S(=O)(=O)Nc2ncns2)ccc1Oc1ccc(-c2cccc(C(F)(F)F)c2)cc1-c1ccnc(CNCCC2CCNCC2)c1 | = | 5.59 |
| O=C1N(Cc2ccc(C(F)(F)F)o2)c2ccccc2[C@]12COc1cc3c(cc12)OCO3 [FUNAPIDE] | = | 7.08 |
